Source of measurements: patent USRE47150

Molecular target: T1, mouse tissue factor pathway inhibitor (TFPI) (mouse, UniProt O54819 29-289, limits assumed)
T1 construct: bought; also called mTFPI; murine TFPI
T1 sequence (looked up): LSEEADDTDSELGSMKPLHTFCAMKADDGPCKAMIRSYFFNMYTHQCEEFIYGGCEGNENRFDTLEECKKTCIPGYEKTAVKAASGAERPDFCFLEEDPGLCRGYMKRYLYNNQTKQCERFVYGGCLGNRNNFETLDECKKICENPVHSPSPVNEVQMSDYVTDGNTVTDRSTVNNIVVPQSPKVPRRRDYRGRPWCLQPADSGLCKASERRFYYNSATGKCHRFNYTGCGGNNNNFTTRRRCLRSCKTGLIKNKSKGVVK
Test: SPR, TFPI immobilized
Measured Endpoint: pKd
In plain terms, pKd is the concentration in mol/L turned into minus its base-10 logarithm.

Illustrative cases are given below, each with its answer.
1. B41.2 (4B7 HC N32D+D62R+Y112D/LC S32R+D33F+N35I) (Fab, V domains shown) VH: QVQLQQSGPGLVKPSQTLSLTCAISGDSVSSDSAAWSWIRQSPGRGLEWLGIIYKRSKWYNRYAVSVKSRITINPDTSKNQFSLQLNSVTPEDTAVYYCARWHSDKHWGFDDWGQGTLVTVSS VL: DIVMTQSPLSLPVTPGEPASISCRSSQSLVFRFGITYLNWYLQKPGQSPQLLIYKGSNRASGVPDRFSGSGSGTDFTLKISRVEAEDVGVYYCQQYDSYPLTFGQGTKVEIKR: 10.28
2. B18.5 (4B7 HC N32D+D62Q+Y112D/LC F31I+D33F+N35I) (Fab, V domains shown) VH: QVQLQQSGPGLVKPSQTLSLTCAISGDSVSSDSAAWSWIRQSPGRGLEWLGIIYKRSKWYNQYAVSVKSRITINPDTSKNQFSLQLNSVTPEDTAVYYCARWHSDKHWGFDDWGQGTLVTVSS VL: DIVMTQSPLSLPVTPGEPASISCRSSQSLVISFGITYLNWYLQKPGQSPQLLIYKGSNRASGVPDRFSGSGSGTDFTLKISRVEAEDVGVYYCQQYDSYPLTFGQGTKVEIKR: 9.40

Consider the additional binder presented here.
get_value(item= gB9.7 (4B7 HC Q1E+N32D+G44S+K55Y+D62R+Y112D/LC S32R+N35I) (Fab, V domains shown) VH: EVQLQQSGPGLVKPSQTLSLTCAISGDSVSSDSAAWSWIRQSPSRGLEWLGIIYYRSKWYNRYAVSVKSRITINPDTSKNQFSLQLNSVTPEDTAVYYCARWHSDKHWGFDDWGQGTLVTVSS VL: DIVMTQSPLSLPVTPGEPASISCRSSQSLVFRDGITYLNWYLQKPGQSPQLLIYKGSNRASGVPDRFSGSGSGTDFTLKISRVEAEDVGVYYCQQYDSYPLTFGQGTKVEIKR , readout=pKd) returns 9.70
